These entries and their values trace back to patent US9434711B2.

Target Or System: canine TRPM8 (Canis lupus familiaris)
Assay Explanation: In Vitro Canine TRPM8 Functional Assay (Ca2+ fluorescence, icilin activation)
Type: cell-based
Test Parameters: compound at 0.2 μM; canine TRPM8, icilin activation; read-out: % Inh @ 0.2
Reported Metric: inhibition at 0.2 µM (%)

Example cases with answers are listed next.
INSERT INTO measurements (compound, target_or_system, unit_of_measure, value_reported) VALUES
  ('Cc1c(N(Cc2cccc(OC(F)(F)F)c2)S(=O)(=O)CCCBr)sc2ccccc12', 'canine TRPM8 (Canis lupus familiaris)', '%', 85),
  ('CC(C)c1c(N(CCC2CC2)S(=O)(=O)c2ccc(C(=O)O)cc2)sc2ccccc12', 'canine TRPM8 (Canis lupus familiaris)', '%', 104),
  ('O=C(O)c1ccc(S(=O)(=O)N(CCCCC(F)(F)F)c2sc3ccccc3c2Br)c(F)c1', 'canine TRPM8 (Canis lupus familiaris)', '%', 102),
  ('Cc1c(N(Cc2ccc(F)c(C(F)(F)F)c2)S(=O)(=O)c2ccc(C(=O)O)cc2)sc2ccccc12', 'canine TRPM8 (Canis lupus familiaris)', '%', 102);

[1] COC(=O)CCS(=O)(=O)N(CCC1CC1)c1sc2ccccc2c1C
[2] COC(=O)c1cccc(S(=O)(=O)N(Cc2ccc(F)c(C(F)(F)F)c2)c2cc3ccccc3s2)c1
[3] COC(=O)c1ccc(S(=O)(=O)N(CCCC(F)(F)F)c2sc3cc(F)ccc3c2C)cc1
stdin: Please produce an ascending ranking of these compounds based on inhibition at 0.2 µM. Order the labels as requested and give them as your answer.
stdout: 3, 2, 1

[1] CCOC(=O)CCCCCN(c1sc2ccccc2c1Br)S(=O)(=O)c1ccccc1
[2] COc1cc(NS(C)(=O)=O)ccc1S(=O)(=O)N(Cc1ccc(F)c(C(F)(F)F)c1)c1cc2ccccc2s1
[3] CC1=C(N(CCCCC(F)(F)F)S(=O)(=O)c2ccc(C(=O)O)cc2)S(=O)(=O)c2ccccc21
[4] O=C(O)c1ccc(S(=O)(=O)N(CCC(F)(F)F)c2cc3ccccc3s2)cc1
stdin: Your job: order these 4 records by inhibition at 0.2 µM, ascending. Lab note: record answer as labels in requested order.
stdout: 3, 2, 4, 1

[A] O=c1[nH]c(-c2ccc(S(=O)(=O)N(CCC3CC3)c3cc4ccccc4s3)cc2)ns1
[B] COc1ccc2c(Br)c(N(Cc3ccc(F)c(F)c3)S(=O)(=O)c3cccnc3)sc2c1
[C] NS(=O)(=O)N(CCC(F)(F)F)c1sc2ccccc2c1Br
stdin: Give the ascending ranking of the items by reported inhibition at 0.2 µM. Answer with the labels in sequence, matching the requested order.
stdout: B, C, A
(B: 18%, C: 29%, A: 90%)

###

Target Or System: canine TRPM8 (Canis lupus familiaris, UniProt Q1A7N1)
Sequence (Q1A7N1 1-1104): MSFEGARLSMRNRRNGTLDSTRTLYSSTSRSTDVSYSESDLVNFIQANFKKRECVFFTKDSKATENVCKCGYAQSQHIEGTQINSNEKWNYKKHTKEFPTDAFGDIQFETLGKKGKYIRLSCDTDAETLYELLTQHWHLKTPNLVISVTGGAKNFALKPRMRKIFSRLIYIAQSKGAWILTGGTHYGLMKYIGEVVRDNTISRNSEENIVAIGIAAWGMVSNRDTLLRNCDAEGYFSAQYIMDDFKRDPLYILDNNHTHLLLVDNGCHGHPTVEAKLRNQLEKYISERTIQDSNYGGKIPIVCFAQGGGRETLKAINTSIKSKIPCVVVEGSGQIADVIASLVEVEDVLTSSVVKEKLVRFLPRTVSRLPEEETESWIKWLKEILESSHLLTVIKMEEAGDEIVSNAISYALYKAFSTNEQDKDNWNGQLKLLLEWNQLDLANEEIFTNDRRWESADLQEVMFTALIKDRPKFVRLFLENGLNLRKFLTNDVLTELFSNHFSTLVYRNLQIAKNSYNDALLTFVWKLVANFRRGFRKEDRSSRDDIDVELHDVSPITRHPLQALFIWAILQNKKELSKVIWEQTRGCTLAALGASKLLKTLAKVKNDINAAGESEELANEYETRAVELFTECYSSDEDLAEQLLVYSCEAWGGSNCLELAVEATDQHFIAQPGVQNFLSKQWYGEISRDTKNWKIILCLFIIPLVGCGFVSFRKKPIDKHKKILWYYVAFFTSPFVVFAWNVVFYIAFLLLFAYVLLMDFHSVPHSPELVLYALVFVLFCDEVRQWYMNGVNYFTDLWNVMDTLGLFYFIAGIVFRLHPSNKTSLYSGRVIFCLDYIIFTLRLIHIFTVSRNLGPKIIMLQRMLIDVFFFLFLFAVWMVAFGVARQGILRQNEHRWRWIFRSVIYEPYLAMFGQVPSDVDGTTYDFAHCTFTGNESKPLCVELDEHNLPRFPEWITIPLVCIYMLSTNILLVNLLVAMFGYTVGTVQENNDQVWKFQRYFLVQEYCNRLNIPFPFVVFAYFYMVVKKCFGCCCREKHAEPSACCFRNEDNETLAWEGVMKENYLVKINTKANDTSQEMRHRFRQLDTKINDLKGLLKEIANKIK
Assay Explanation: In Vitro Canine TRPM8 Functional Assay (Ca2+ fluorescence, icilin activation)
Format: cell-based
Test Parameters: compound at 0.2 μM; canine TRPM8, icilin activation; read-out: % Inh @ 0.2
Reported Metric: inhibition at 0.2 µM (%)

Below, each entry is followed by its recorded inhibition at 0.2 µM result.
INSERT INTO measurements (compound, unit_of_measure, value_reported) VALUES
  ('O=S(=O)(c1ccc(-c2nnn[nH]2)cc1)N(CCCCC(F)(F)F)c1sc2ccccc2c1Cl [Compound 580]', '%', 101),
  ('CC(=O)c1ccc(S(=O)(=O)N(Cc2ccc(F)c(C(F)(F)F)c2)c2cc3ccccc3s2)cc1 [Compound 308]', '%', 92),
  ('O=S(=O)(c1ccccc1)N(Cc1ccc(OC(F)(F)F)cc1)c1sc2ccccc2c1C(F)(F)F [Compound 325]', '%', 102),
  ('Cc1c(N(CC2CC2)S(=O)(=O)c2ccccc2)sc2ccccc12 [Compound 97]', '%', 96),
  ('CC(C)(O)c1c(N(CCCCC(F)(F)F)S(=O)(=O)c2ccc(Br)cc2)sc2ccccc12 [Compound 656]', '%', 98);

[P] COC(=O)CS(=O)(=O)N(Cc1ccc(F)c(C(F)(F)F)c1)c1sc2ccccc2c1C [Compound 791]
[Q] NS(=O)(=O)N(Cc1ccc(F)c(C(F)(F)F)c1)c1sc2ccccc2c1Cl [Compound 302]
[R] CCS(=O)(=O)N(Cc1ccc(F)c(C(F)(F)F)c1)c1sc2ccccc2c1-c1ccccc1F [Compound 200]
[S] CCS(=O)(=O)N(CCN1CCOCC1)c1sc2ccccc2c1C [Compound 113]
stdin: // ascending sort on recorded inhibition at 0.2 µM Response field: labels, in requested order.
stdout: S, R, Q, P
